Sourced from the supplement of paper PMC10567573

B1: PTPRD (parent)
chain: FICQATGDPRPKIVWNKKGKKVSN

- Variants of: B1
- PROTOCOL: protein stability index of a GFP-peptide fusion (GPS, HEK-293T) (PSI 1-6); higher = more stable;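 note: lentivirally expressed fusions sorted by FACS into six bins by GFP to DsRed ratio, PSI derived from sequencing read proportions per bin multiplied by bin number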
- REPORTED CONDITIONS: c terminus: a fixed tail appended
# protein stability index >= 2 gives met, anything below gives not met

See these solved cases before continuing.
{"MACROMOLECULE SEQUENCE": "FICQATGDPRPKIVWNKLGKKVSN", "CATEGORY LABEL": "not met"}
{"MACROMOLECULE SEQUENCE": "FICQATGDPRPHIVWNKKGKKVSN", "CATEGORY LABEL": "not met"}
{"MACROMOLECULE SEQUENCE": "FICQATGDPRPKIVWNKKGKKVHN", "CATEGORY LABEL": "met"}
{"MACROMOLECULE SEQUENCE": "FICQATGDPDPKIVWNKKGKKVSN", "CATEGORY LABEL": "not met"}
{"MACROMOLECULE SEQUENCE": "FICQATGDPRPKIVWNKKGKIVSN", "CATEGORY LABEL": "met"}
{"MACROMOLECULE SEQUENCE": "FISQATGDPRPKIVWNKKGKKVSN", "CATEGORY LABEL": "not met"}
{"MACROMOLECULE SEQUENCE": "FICQATGTPRPKIVWNKKGKKVSN", "CATEGORY LABEL": "met"}
{"MACROMOLECULE SEQUENCE": "FICQATGDPRPKIVWNKKGKKVSR", "CATEGORY LABEL": "met"}
{"MACROMOLECULE SEQUENCE": "FICQATGDPRPKIVWNKFGKKVSN", "CATEGORY LABEL": "not met"}
{"MACROMOLECULE SEQUENCE": "FICQATGDPRPKIVENKKGKKVSN", "CATEGORY LABEL": "met"}

Problem: Could you tell me if the measured protein stability index of FICQATGDPRPKIVWNKKIKKVSN reaches 2 or more?
Solution: not met

Problem: Here is the next variant: FICQATGDARPKIVWNKKGKKVSN
Solution: not met

Problem: // same read-out, input: FICQATGDPRPKIVWNKKGNKVSN
Solution: not met

Problem: One more variant: FICQATGDPQPKIVWNKKGKKVSN
Solution: met

Problem: Field entry: AICQATGDPRPKIVWNKKGKKVSN
Solution: met
